Recorded Selectivity, one value per entry.
- measured-target: pre-pro-human insulin

Solved cases (2 shown):
>  <protein>
trypsin variant SEQ ID NO: 93 (protein) IVGGYTCAANSIPYQVSLNSGSHRCGGSLINSQWVVSAAHCYKSRIQVRLGEHNIDVLEGNEQFINAAKIITHPNFNPNTLDNDIMLIKLSSPATLNSNVATVSLPTSCAAAGTECLISGWGNTCSSGSSMPSLLQCLKAPVLSDSSCKSSYPGQITGNMICVGFLEGGADACQGDSGGPVVCNGQLQGIVSSGYGCAQKNKPGVYTKVCNYVNWIQQTIAAN

>  <Selectivity>
>90%

$$$$
>  <protein>
trypsin variant SEQ ID NO: 46 (protein) IVGGYTCAANSIPYQVSLNSGSHACGGSLINSQWVVSAAHCYKSRIQVRLGEHNIDVLEGNEQFINAAKIITHPNFNGNTLDNDIMLIKLSSPATLNSRVATVSLPRSCAAAGTECLISGWGNTKSSGSSYPSLLQCLKAPVLSDSSCKSSYPGQITGNMICVGFLEGGKDACQGDSGGPVVCNGQLQGIVSSGYGCAQKNKPGVYTKVCNYVNWIQQTIAAN

>  <Selectivity>
>70%

$$$$

Switching to the query record.
*Q* What value of Selectivity has been recorded for this entry: trypsin variant SEQ ID NO: 24 (protein) IVGGYTCAANSIPYQVSLNSGSHRCGGSLINSQWVVSAAHCYKSRIQVRLGEHNIDVLEGNEQFINAAKIITHPNFNGNTLDNDIMLIKLSSPATLNSRVATVSLPRSCAAAGTECLISGWGNTKSSGSSYPSLLQCLKAPVLSDSSCKSSYPGQITGNMICVGFLEGGYDACQGDSGGPVVCNGQLQGIVSSGYGCAQKNKPGVYTKVCNYVNWIQQTIAAN
*A* >90%
